# Method: solvent given as SMILES
# Details: in N#Cc1ccccc1
Assignment: determine reported solvation free energy, 298 K for the given compounds.
Give bare numbers, in kcal/mol.

INSERT INTO measurements (structure_notation, reported_result) VALUES
  ('Clc1ccccc1', -5.63),
  ('C=CCCCCC', -3.92),
  ('Fc1ccccc1', -4.53),
  ('CNC', -2.8),
  ('C1CCCCC1', -3.54),
  ('C1=CCCCC1', -3.95);

Fill in solvation free energy, 298 K for each of the 5 compounds listed.
1. S=C=S
2. c1ccccc1
3. Clc1ccccc1Cl
4. CCCC(C)C
5. CC(C)CC(C)C

Result:
[-3.18, -4.35, -6.82, -2.91, -3.27]

* * *

# Method: solvent given as SMILES
# Details: in OCCOCCOCCO
For each entry below, report its solvation free energy, 298 K value.

INSERT INTO measurements (structure_notation, reported_result) VALUES
  ('CC(C)CC(C)(C)C', '-1.88 kcal/mol'),
  ('Cc1ccc(C)cc1', '-4.37 kcal/mol'),
  ('C=CCCCCCCCC', '-3.58 kcal/mol'),
  ('c1ccccc1', '-3.43 kcal/mol'),
  ('S', '-1.32 kcal/mol');

Could you tell me solvation free energy, 298 K for each of these compounds? They are listed below.
1. Cc1ccccc1C
2. CC(C)(C)Cl

Result:
1: -4.61 kcal/mol; 2: -2.49 kcal/mol

Parameters: items (list). Returns: solvation free energy, 298 K for each item.
1. C=C(C)C(=C)C
2. C1CCCCC1
3. C=CCCCCC

Result:
["-2.49 kcal/mol", "-2.26 kcal/mol", "-2.27 kcal/mol"]

Task: I am curious: what solvation free energy, 298 K value has been reported for "C1=CCCCC1" ?
Result: -2.73 kcal/mol

* * *

Give measured solvation free energy, 298 K for each item. Keep answers brief.
# Method: solvent given as SMILES
# Details: in ICI
Numbers only, in kcal/mol.

INSERT INTO results (structure_notation, measured_attribute, reported_result) VALUES
  ('Cc1ccccc1', 'solvation free energy, 298 K', -4.53),
  ('C1CCCCC1', 'solvation free energy, 298 K', -3.06),
  ('CCCC(C)C', 'solvation free energy, 298 K', -1.94);

Okay, now this compound:
Task: Fill blank: measured solvation free energy, 298 K of the compound "CC(C)CC(C)C" is ____.
Result: -2.14

* * *

# Method: solvent given as SMILES
# Details: in CCCO
Record form. Attribute: solvation free energy, 298 K. Fill in for each entry.
Numbers only, in kcal/mol.

Reference set, count: 4
INSERT INTO results (molecule, unit_annotation, reported_result) VALUES
  ('CC(C)CC(C)C', 'kcal/mol', -3.39),
  ('c1ccc2c(c1)Nc1ccccc1S2', 'kcal/mol', -13.1),
  ('COC(=O)OC', 'kcal/mol', -3.72),
  ('CN1C(=O)C(O)N=C(c2ccccc2)c2cc(Cl)ccc21 (configuration not stated)', 'kcal/mol', -18.5);

Parameters: items (list). Returns: solvation free energy, 298 K for each item.
1. c1ccccc1
2. COC(=O)c1cc(OC)c(O)c(-c2cc(C(=O)OC)cc(OC)c2O)c1
3. O=C(Oc1ccccc1)c1ccccc1O
4. CCCCCCCCCCCCCCCCCCCCCCCC
5. COC
6. O=C(O)c1ccc([N+](=O)[O-])cc1
7. COC(=O)c1ccc(N)cc1
8. Cc1ccc(C(C)C)c(O)c1

Result:
[-3.84, -20.8, -12.4, -13.8, -2.1, -12.2, -11.1, -10.2]
